Read-out: Cytochrome P450 (CYP2B6), CYP2B6 (gene 1555)
assay.notes: LTEA_HepaRG_CYP2B6: Life Technologies and Expression Analysis (LTEA) Assay for Cytochrome P450 (CYP2B6) using HepaRG (AID 2283481)
measurement.conditions: mRNA level, 48 h; actives raise or lower the signal
The source made the active and inactive calls. The calls were made as follows: active = hit-call score of the fitted dose curve at least 0.9, where 1 is the maximum; inactive = score below 0.9.
Labels: class 1 for active, class 0 for inactive

compound	answer.label
C=CCc1ccc2c(c1)OCO2	class 1
CC(C)(C)OOC(C)(C)CCC(C)(C)OOC(C)(C)C	class 0
COC(=O)c1ccccc1N	class 0
c1ccc(N=Nc2ccccc2)cc1	class 0
c1ccc2c(c1)-c1cccc3cccc-2c13	class 1
O=[N+]([O-])c1ccc(Oc2ccc(Cl)cc2Cl)cc1	class 1
CCC12COCN1COC2	class 0
CC(O)CCO (stereo not given)	class 0
Oc1ccccc1Cl	class 0
[Cl-].[Cl-].[Hg+2]	class 0
ClCCOCCCl	class 0
Oc1ccc2ccc3cccc4ccc1c2c34	class 0
CCN(CC)CCO	class 0
Nc1ccc(Oc2ccc(N)cc2)cc1	class 1
CCC[CH2][Sn]([Cl])([CH2]CCC)[CH2]CCC	class 1
CCC(C)c1ccc(O)cc1 (stereo not given)	class 0
CN(C)[C@@H]1C(=O)C(C(N)=O)=C(O)[C@@]2(O)C(=O)C3=C(O)c4c(O)cccc4[C@@](C)(O)[C@H]3C[C@@H]12	class 0
CCCCCCCCn1sccc1=O	class 1
CN(C)c1ccc(C(=O)c2ccc(N(C)C)cc2)cc1	class 1
CCCCCCCCCCCCCN1CC(C)OC(C)C1 (stereo not given)	class 0
Clc1ccc(Cl)c(Cl)c1	class 0
CCOc1cccc(C2(N3CCN(c4ccccc4)CC3)CCC(C)CC2)c1 (stereo not given)	class 1
CC(C)(O)c1cnn2c(-c3ccc(F)c(-c4c(F)cccc4C#N)c3)cnc2n1	class 1
Cc1cccc(N)c1N	class 0
O=P(OCCCl)(OCCCl)OCCCl	class 1
Nc1ccc([N+](=O)[O-])cc1	class 0
COC(=O)Nc1nc2ccccc2[nH]1	class 1
CC(C)COC(=O)c1ccccc1C(=O)OCC(C)C	class 0
CCCCCOC(=O)c1ccccc1C(=O)OCCCCC	class 0
CCCCOC(=O)c1ccccc1C(=O)OCc1ccccc1	class 0

====

target.or.test.system: Peroxisome proliferator-activated receptor gamma (Homo sapiens)
assay.notes: ATG_PPARg_TRANS: Attagene TRANS-FACTORIAL HepG2 Assay for human Peroxisome Proliferator-activated Receptor-gamma (PPARg) (AID 2283007)
Records with an inconclusive call do not appear. Activity calls are given as the source filed them. The calls were made as follows: active = hit-call score of the fitted dose curve at least 0.9, where 1 is the maximum; inconclusive = response in the unintended direction; inactive = score below 0.9.

compound	outcome
ClC1=C(Cl)C2(Cl)C3C(Cl)C=CC3C1(Cl)C2(Cl)Cl (stereo not drawn)	inactive
Clc1ccccc1Cl	inactive
[Cl-].[Cl-].[Hg+2]	inactive

====

assay.notes: BSK_SAg_Proliferation: Cell Proliferation Assessment in the BioMAP Diversity Plus: SAg Assay (AID 2283095);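 also: relative cell number as total protein by SRB absorbance in sub-confluent culture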
measurement.conditions: primary human HUVEC with PBMC
Calls of active or inactive are those of the source. The calls were made as follows: active = hit-call score of the fitted dose curve at least 0.9, where 1 is the maximum; inactive = score below 0.9.
Labels: yes = active, no = inactive

compound	answer.label
CC(C)(C)C(O)(CCc1ccc(Cl)cc1)Cn1cncn1 (stereo not given)	no
CC(O)CCO (stereo not given)	no
CCN(CC)CCO	no
CCCCCOC(=O)c1ccccc1C(=O)OCCCCC	yes
CCC[CH2][Sn]([Cl])([CH2]CCC)[CH2]CCC	yes
CC(C)N(Cc1ccccc1)C(=O)C(C)(C)C	no
Nc1ccc([N+](=O)[O-])cc1	no
Oc1ccc2ccc3cccc4ccc1c2c34	yes
Oc1ccccc1Cl	no
CCCCCCCCn1sccc1=O	yes
CCCSC(=O)N(CCC)CCC	no
CN(C)C(=O)Nc1ccc(Cl)cc1	yes
Brc1ccc(Oc2ccccc2)cc1	no
CCCCC(CC)COC(=O)c1ccc(C(=O)OCC(CC)CCCC)c(C(=O)OCC(CC)CCCC)c1 (stereo not given)	no
c1ccc(N=Nc2ccccc2)cc1	no
ClCCOCCCl	no
OCCOCCO	no
Clc1ccc(C(c2ccc(Cl)cc2)C(Cl)Cl)cc1	yes
CC(C)(O)c1cnn2c(-c3ccc(F)c(-c4c(F)cccc4C#N)c3)cnc2n1	no
Clc1ccc(Cl)c(Cl)c1	no
N#CC(Br)Br	no
CCN(CC)N=O	no
CNC(=O)Oc1cccc2c1OC(C)(C)C2	no
[As]#[In]	no
O=C(Oc1ccc(Br)cc1)N1CCN2CCC1CC2	no
CCOc1cccc(C2(N3CCN(c4ccccc4)CC3)CCC(C)CC2)c1 (stereo not given)	no
Nc1ccc(N=Nc2ccccc2)cc1	no
ClC1=C(Cl)[C@]2(Cl)[C@H]3[C@H]([C@@H]4C=C[C@H]3C4)[C@@]1(Cl)C2(Cl)Cl	yes
OCCCl	no
O=C(N[C@H](c1ccccc1)[C@@H]1CN2CCC1CC2)c1c(Cl)ccc(C(F)(F)F)c1Cl	yes

====

target.or.test.system: human CYP1A2, CYP1A2 (gene 1544) (UniProt P05177)
Sequence (P05177 whole entry, looked up): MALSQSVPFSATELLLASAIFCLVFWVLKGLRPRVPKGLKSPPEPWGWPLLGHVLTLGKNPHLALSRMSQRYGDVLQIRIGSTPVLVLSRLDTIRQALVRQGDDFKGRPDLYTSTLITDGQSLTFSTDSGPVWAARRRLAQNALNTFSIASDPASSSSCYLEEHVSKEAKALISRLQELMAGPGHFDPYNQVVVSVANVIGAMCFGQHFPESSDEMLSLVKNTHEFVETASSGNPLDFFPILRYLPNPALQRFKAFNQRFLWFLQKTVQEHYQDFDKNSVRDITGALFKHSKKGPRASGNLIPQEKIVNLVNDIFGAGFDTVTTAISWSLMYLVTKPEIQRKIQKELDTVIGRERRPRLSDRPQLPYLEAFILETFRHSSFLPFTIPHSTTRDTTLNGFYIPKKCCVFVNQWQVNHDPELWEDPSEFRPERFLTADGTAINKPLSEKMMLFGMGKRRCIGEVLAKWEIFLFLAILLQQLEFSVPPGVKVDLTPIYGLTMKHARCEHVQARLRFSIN
assay.notes: NVS_ADME_hCYP1A2: NovaScreen (NVS) CYP450-related Enzyme Activity (ADME) Assay for human CYP1A2 (AID 2283102);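 as to AC50: fluorescence from turnover of a fluorogenic substrate by recombinant insect-cell CYP1A2; potency for inhibition since loss of fluorescence marks reduced CYP1A2 activity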
The source made the active and inactive calls. The calls were made as follows: active = hit-call score of the fitted dose curve at least 0.9, where 1 is the maximum; inconclusive = response in the unintended direction; inactive = score below 0.9.

smiles.representation	AC50
COP(=S)(OC)SCN1C(=O)c2ccccc2C1=O	3710 nM (active)
N#CC(Br)(Br)C(N)=O	inactive
O=C(Nc1ccccc1)c1ccccc1I	inactive
Oc1ccc2ccc3cccc4ccc1c2c34	275 nM (active)
CCOC(=O)[C@]1(c2ccccc2)Oc2ccccc2[C@@H]1N	5070 nM (active)
Cc1cc(N=Nc2ccccc2C)ccc1N	858 nM (active)
[Cl-].[Cl-].[Hg+2]	998 nM (active)

====

assay.notes: CCTE_Mundy_HCI_iCellGluta_NOG_NeuriteLength: CCTE's Neurite Outgrowth Assay in iCellGluta cells for Neurite Length, Mundy Lab (AID 2284318)
Inconclusive results are not listed. The source made the active and inactive calls. Rule for the calls: active = hit-call score of the fitted dose curve at least 0.9, where 1 is the maximum; inconclusive = response in the unintended direction; inactive = score below 0.9.
readout.name: AC50

smiles.representation	result
CC(C)COC(=O)c1ccccc1C(=O)OCC(C)C	inactive
CCCCOC(=O)c1ccccc1C(=O)OCc1ccccc1	inactive
[O-][Cl+]O	24 µM (active)
CCC[CH2][Sn]([Cl])([CH2]CCC)[CH2]CCC	0.163 µM (active)

====

assay.notes: ATG_M_32_TRANS: Attagene TRANS-FACTORIAL HepG2 Assay for M32 Transcription Factor (Internal Marker) (AID 2282984);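 also: transcript level of a background control reporter unit measured by RT-PCR and capillary electrophoresis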
measurement.conditions: HepG2 Attagene TRANS M32 internal marker reporter
Results filed as inconclusive are left out. Active and inactive are the calls of the source. How the source made its calls: active means hit-call score of the fitted dose curve at least 0.9, where 1 is the maximum; inconclusive means response in the unintended direction; inactive means score below 0.9.
readout.name: outcome

compound	result
[O-][Cl+]O	inactive
c1ccc(C2CO2)cc1 (centres undefined)	inactive
CC(C)COC(=O)c1ccccc1C(=O)OCC(C)C	inactive
O=C(Oc1ccc(Br)cc1)N1CCN2CCC1CC2	inactive
Cc1cccc(N)c1N	inactive
Clc1ccc(C(c2ccc(Cl)cc2)C(Cl)Cl)cc1	inactive
C[N+](C)(C)CC1CO1 (centres undefined)	inactive
CNC(=O)Oc1cccc2c1OC(C)(C)C2	inactive
ClC1=C(Cl)C2(Cl)C3C(Cl)C=CC3C1(Cl)C2(Cl)Cl (centres undefined)	inactive
Oc1ccccc1Cl	inactive
Oc1ccc2ccc3cccc4ccc1c2c34	inactive
CC(O)CCO (centres undefined)	inactive
CCNS(=O)(=O)C(F)(F)C(F)(F)C(F)(F)C(F)(F)C(F)(F)C(F)(F)C(F)(F)C(F)(F)F	inactive
CCCCCOC(=O)c1ccccc1C(=O)OCCCCC	inactive

====

target.or.test.system: Cellular tumor antigen p53 (Homo sapiens)
assay.notes: TOX21_p53_BLA_p4_ratio: Tox21 HCT-116 p53 Agonism Beta-lactamase Assay, Ratio, Phase 4 (AID 2283601)
Records with an inconclusive call do not appear. Calls of active or inactive are those of the source. Rule for the calls: active = hit-call score of the fitted dose curve at least 0.9, where 1 is the maximum; inconclusive = response in the unintended direction; inactive = score below 0.9.
Labels: TRUE for active, FALSE for inactive

molecule	target.or.test.system	answer.label
COc1cc(C=O)cc2c1[C@H](COC(N)=O)[C@]1(OC(C)=O)ON2C[C@H]2[C@@H]1N2C(C)=O	Cellular tumor antigen p53 (Homo sapiens)	TRUE
Nc1ccc(Cl)cc1N	Cellular tumor antigen p53 (Homo sapiens)	FALSE
O=[N+]([O-])c1ccc(Oc2ccc(Cl)cc2Cl)cc1	Cellular tumor antigen p53 (Homo sapiens)	FALSE
c1ccc(N=Nc2ccccc2)cc1	Cellular tumor antigen p53 (Homo sapiens)	FALSE
CCCCC(CC)COC(=O)c1ccc(C(=O)OCC(CC)CCCC)c(C(=O)OCC(CC)CCCC)c1 (centres undefined)	Cellular tumor antigen p53 (Homo sapiens)	FALSE
CCCCCCCCCCCCCN1CC(C)OC(C)C1 (centres undefined)	Cellular tumor antigen p53 (Homo sapiens)	FALSE
Cc1cccc(N)c1N	Cellular tumor antigen p53 (Homo sapiens)	FALSE
Nc1ccc(Oc2ccc(N)cc2)cc1	Cellular tumor antigen p53 (Homo sapiens)	FALSE
C[N+](C)(C)CC1CO1 (centres undefined)	Cellular tumor antigen p53 (Homo sapiens)	FALSE
Nc1cc(Cl)cc(C(=O)O)c1Cl	Cellular tumor antigen p53 (Homo sapiens)	FALSE
Nc1ccc([N+](=O)[O-])cc1	Cellular tumor antigen p53 (Homo sapiens)	FALSE
N#CC(Br)(Br)C(N)=O	Cellular tumor antigen p53 (Homo sapiens)	FALSE
Clc1ccc(C(c2ccc(Cl)cc2)C(Cl)(Cl)Cl)cc1	Cellular tumor antigen p53 (Homo sapiens)	FALSE
Oc1ccc2ccc3cccc4ccc1c2c34	Cellular tumor antigen p53 (Homo sapiens)	FALSE
[As]#[In]	Cellular tumor antigen p53 (Homo sapiens)	FALSE
OCCCBr	Cellular tumor antigen p53 (Homo sapiens)	FALSE
O=C1CCCO1	Cellular tumor antigen p53 (Homo sapiens)	FALSE
CC(C)(C)OOC(=O)c1ccccc1	Cellular tumor antigen p53 (Homo sapiens)	FALSE
c1ccc2c(c1)oc1ccccc12	Cellular tumor antigen p53 (Homo sapiens)	FALSE
CCC12COCN1COC2	Cellular tumor antigen p53 (Homo sapiens)	FALSE
c1ccc(NNc2ccccc2)cc1	Cellular tumor antigen p53 (Homo sapiens)	FALSE
Cn1cc(-c2ccccc2)c(=O)c(-c2cccc(C(F)(F)F)c2)c1	Cellular tumor antigen p53 (Homo sapiens)	FALSE
CN(C)C(=O)Nc1ccc(Cl)cc1	Cellular tumor antigen p53 (Homo sapiens)	FALSE
CC(C)(O)c1cnn2c(-c3ccc(F)c(-c4c(F)cccc4C#N)c3)cnc2n1	Cellular tumor antigen p53 (Homo sapiens)	FALSE
CN(C)c1ccccc1	Cellular tumor antigen p53 (Homo sapiens)	FALSE
COP(=S)(OC)SCN1C(=O)c2ccccc2C1=O	Cellular tumor antigen p53 (Homo sapiens)	FALSE
Clc1ccc(Cl)c(Cl)c1	Cellular tumor antigen p53 (Homo sapiens)	FALSE
Nc1ccc(Cc2ccc(N)cc2)cc1	Cellular tumor antigen p53 (Homo sapiens)	FALSE
CN(C)[C@@H]1C(=O)C(C(N)=O)=C(O)[C@@]2(O)C(=O)C3=C(O)c4c(O)cccc4[C@@](C)(O)[C@H]3C[C@@H]12	Cellular tumor antigen p53 (Homo sapiens)	FALSE

Cited source for all entries: PubChem BioAssay (EPA / NIEHS)
